Test system: endometrial cancer organoids
MEASUREMENT NOTES: Patient-derived endometrial cancer organoid cell viability (CellTiter-Glo)
Format: cell-based, human
TEST CONDITIONS: 100 μM, monotherapy; viability normalized to vehicle = 100
ENDPOINT LABEL: Flavonoids screening on endometrial cancer cell organoids, Average

- O=c1c(O)c(-c2ccc(O)c(O)c2)oc2cc(O)cc(O)c12: 0.00
- O=c1c(O)c(-c2ccccc2)oc2cc(O)cc(O)c12: 29.73
- O=c1c(O)c(-c2ccccc2)oc2ccccc12 [3-hydroxyflavone]: 34.65
- O=c1cc(-c2ccc(O)c(O)c2)oc2cc(O)cc(O)c12: 0.00
